Tested on: SK-BR-3
Experiment: normalised viability (% of control), CellTiter-Blue; higher = more viable cells (about 100 = DMSO control)
Details: 100 nM; incubation time: 72 h
So I've got a bunch of compounds here, and I need their normalised viability values.
Number first, unit second: that is the form wanted.

Q: What value of measured normalised viability is listed for `Cc1ccc(-n2nc(C(C)(C)C)cc2NC(=O)Nc2ccc(OCCN3CCOCC3)c3ccccc23)cc1` ?
Result: 69.7%

Q: What value of measured normalised viability is listed for COc1cc([C@@H]2c3cc4c(cc3[C@@H](O[C@@H]3O[C@@H]5CO[C@@H](C)O[C@H]5[C@H](O)[C@H]3O)[C@H]3COC(=O)[C@H]23)OCO4)cc(OC)c1O [Etoposide] ?
Result: 58.5%

Q: What value of measured normalised viability is listed for `C#Cc1cccc(Nc2ncnc3cc(OCCOC)c(OCCOC)cc23)c1` ?
Result: 88.7%

Q: What value of measured normalised viability is listed for `CN(N=O)C(=O)N[C@@H](C=O)[C@@H](O)[C@H](O)[C@H](O)CO` ?
Result: 95.7%

Q: What value of measured normalised viability is listed for `C[C@@H](Oc1cc(-c2cnn(C3CCNCC3)c2)cnc1N)c1c(Cl)ccc(F)c1Cl` ?
Result: 59.1%

Q: What value of measured normalised viability is listed for `NCC(=O)CCC(=O)O` ?
Result: 99%

Q: What value of measured normalised viability is listed for `CC(C)Cn1cnc2c(N)nc3ccccc3c21` ?
Result: 112%

Q: What value of measured normalised viability is listed for `Oc1nc(-c2ccc(C(F)(F)F)cc2)nc2c1CSCC2` ?
Result: 112%

Every entry's value here was drawn from the supplement of paper PMC4862054.
